All figures here come from BindingDB's records for doi:10.1016/j.bmcl.2010.03.092.

# IC50 values compiled below
target-of-assay: Histone deacetylase 2 (Homo sapiens)
procedure-summary: Inhibition of human recombinant HDAC2
Respond numerically; units are nM and should not be typed.

[in] Notebook: pull reported IC50 for Histone deacetylase 2 (Homo sapiens), entry `CCN1CCC[C@@H](n2c(Cc3ccccc3)nc(C)c2-c2cccc(/C=C/C(=O)NO)c2)C1`
[out] 120

Others:
[in] Notebook: pull reported IC50 for Histone deacetylase 2 (Homo sapiens), entry `CC(C)N(CCn1c(-c2cccc(/C=C/C(=O)NO)c2)nc2ccccc21)C(C)C`
[out] 40

[in] Same thing, different compound: `Cc1c(-c2ccccc2)nc(-c2cccc(/C=C/C(=O)NO)c2)n1CCc1ccccc1`
[out] 5

---

# IC50 values compiled below
target-of-assay: Histone deacetylase 2 (Homo sapiens)
procedure-summary: Inhibition of human recombinant HDAC2

[in] For `CN1CCC[C@@H](n2c(-c3cccc(/C=C/C(=O)NO)c3)nc3ccccc32)C1` , what is its reported IC50?
[out] 10 nM

[in] Same thing, different compound: `CCN1CCC[C@@H](n2c(-c3cccc(/C=C/C(=O)NO)c3)nc3ccccc32)C1`
[out] 10 nM

Others:
[in] For `Cc1nc(-c2cccc(/C=C/C(=O)NO)c2)n(CCN2CCOCC2)c1Cc1ccccc1` , what is its reported IC50?
[out] 10 nM

[in] Same thing, different compound: `Cc1c(Cc2ccccc2)nc(-c2cccc(/C=C/C(=O)NO)c2)n1CCc1ccccc1`
[out] 7.9 nM

---

target-of-assay: Histone deacetylase 2 (Homo sapiens)
procedure-summary: Inhibition of human recombinant HDAC2
experimental-readout: IC50

Here's what some known entries look like.
[in] Notebook: pull reported IC50 for Histone deacetylase 2 (Homo sapiens), entry `CCN1CCC[C@@H](n2c(-c3cccc(/C=C/C(=O)NO)c3)nc(Cc3ccccc3)c2C)C1`
[out] 10 nM

[in] Same thing, different compound: `Cc1nc(-c2cccc(/C=C/C(=O)NO)c2)n(CCc2ccccc2)c1Cc1ccccc1`
[out] 5 nM

[in] Same thing, different compound: `O=C(/C=C/c1cccc(-c2nc3ccccc3n2CCCc2ccccc2)c1)NO`
[out] 12 nM

[in] Same thing, different compound: `COc1ccc(-n2c(-c3cccc(/C=C/C(=O)NO)c3)nc3ccccc32)cc1`
[out] 40 nM

[in] Same thing, different compound: `Cc1nc(-c2cccc(/C=C/C(=O)NO)c2)n(CCN2CCOCC2)c1C`
[out] 31 nM

[in] Same thing, different compound: `O=C(/C=C/c1cccc(-c2nc3ccccc3n2[C@@H]2CCCNC2)c1)NO`
[out] 12 nM

Others:
[in] Notebook: pull reported IC50 for Histone deacetylase 2 (Homo sapiens), entry `O=C(/C=C/c1cccc(-c2nc3ccccc3n2CCN2CCCC2)c1)NO`
[out] 16 nM

[in] Same thing, different compound: `CCN1CCC[C@H](n2c(-c3cccc(/C=C/C(=O)NO)c3)nc3ccccc32)C1`
[out] 31 nM

[in] Same thing, different compound: `CCN1CCC[C@@H](n2c(-c3cccc(/C=C/C(=O)NO)c3)nc(C)c2C)C1`
[out] 12 nM
